- Measured on: ActRIIA and ActRIIB (on TGFB/SMAD SBE Reporter HEK293 cells) (human)
- Sequence (chain, as listed by the source, chain 1 of 2): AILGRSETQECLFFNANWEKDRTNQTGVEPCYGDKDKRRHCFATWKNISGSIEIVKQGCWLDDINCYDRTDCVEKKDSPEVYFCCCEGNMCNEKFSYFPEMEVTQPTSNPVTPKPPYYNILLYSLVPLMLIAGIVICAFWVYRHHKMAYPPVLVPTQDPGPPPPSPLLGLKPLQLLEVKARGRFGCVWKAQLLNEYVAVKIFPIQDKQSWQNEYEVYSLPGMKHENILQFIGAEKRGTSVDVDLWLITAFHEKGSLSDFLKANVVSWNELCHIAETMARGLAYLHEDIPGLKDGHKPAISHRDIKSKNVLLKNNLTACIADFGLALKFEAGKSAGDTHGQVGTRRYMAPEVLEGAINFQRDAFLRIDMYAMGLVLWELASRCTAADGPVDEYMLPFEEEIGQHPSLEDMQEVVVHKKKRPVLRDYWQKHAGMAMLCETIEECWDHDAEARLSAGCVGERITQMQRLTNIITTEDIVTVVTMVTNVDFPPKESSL
- Sequence (chain, as listed by the source, chain 2 of 2): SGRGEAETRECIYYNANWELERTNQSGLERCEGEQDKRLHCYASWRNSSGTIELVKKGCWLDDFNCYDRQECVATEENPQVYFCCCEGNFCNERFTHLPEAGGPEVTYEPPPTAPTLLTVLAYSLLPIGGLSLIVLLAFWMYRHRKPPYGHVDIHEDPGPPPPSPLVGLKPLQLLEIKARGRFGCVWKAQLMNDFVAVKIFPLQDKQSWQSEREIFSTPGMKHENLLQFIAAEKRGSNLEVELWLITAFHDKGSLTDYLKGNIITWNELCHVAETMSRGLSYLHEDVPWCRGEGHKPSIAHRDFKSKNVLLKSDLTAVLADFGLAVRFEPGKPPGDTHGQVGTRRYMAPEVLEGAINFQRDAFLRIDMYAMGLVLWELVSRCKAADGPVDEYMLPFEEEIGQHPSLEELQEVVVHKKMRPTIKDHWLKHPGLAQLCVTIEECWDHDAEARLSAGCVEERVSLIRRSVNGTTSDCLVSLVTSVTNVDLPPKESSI
- Experiment description: cell-based or functional assay
Measured metric: IC50, Activin SMAD RGA (pM)
Numeric answer only, unit pM assumed.

Q: Let me know recorded IC50, Activin SMAD RGA for Antibody Hutzelbrot (antibody, V domains shown, full-length IgG) VH: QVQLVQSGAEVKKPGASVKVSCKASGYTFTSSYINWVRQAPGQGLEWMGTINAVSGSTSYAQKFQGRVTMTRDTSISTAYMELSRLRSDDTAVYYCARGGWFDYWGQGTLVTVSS VL: QSALTQPASVSGSPGQSITISCTGTSSDVGSKNYVNWYQQHPGKAPKLMIYGVSKRQSGVSNRFSGSKSGNTASLTISGLQAEDEADYYCGTFAGGDYYGVFGGGTKLTVL , thanks.
Ans: 422

Q: Look up and state reported IC50, Activin SMAD RGA for Antibody Springerle (antibody, V domains shown, full-length IgG) VH: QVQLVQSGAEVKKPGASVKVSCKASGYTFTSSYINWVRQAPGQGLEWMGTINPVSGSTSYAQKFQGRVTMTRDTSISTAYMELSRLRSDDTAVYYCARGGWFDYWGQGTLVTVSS VL: QSALTQPASVSGSPGQSITISCTGTSSDVGSYNYVNWYQQHPGKAPKLMIYGVSKRESGVSNRFSGSKSGNTASLTISGLQAEDEADYYCGTFAGGSYRGVFGGGTKLTVL
Ans: 94

Q: Determine from records and report IC50, Activin SMAD RGA for Antibody Fasnetsküchla (antibody, V domains shown, full-length IgG) VH: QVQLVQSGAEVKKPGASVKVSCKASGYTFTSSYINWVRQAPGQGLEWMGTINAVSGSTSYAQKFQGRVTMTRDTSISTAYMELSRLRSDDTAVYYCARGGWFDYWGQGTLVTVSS VL: QSALTQPASVSGSPGQSITISCTGTSSDVGSANYVNWYQQHPGKAPKPMIYGVSRRPSGVSNRFSGSKSGNTASLTISGLQAEDEADYYCGTFAGGKYYGVFGGGTKLTVL
Ans: 347
